src = FireProtDB (doi:10.1021/bi500238q)

change of melting temperature, mutant - wild type (higher = more stable): recorded values
B1: Dihydrofolate reductase, Q5KZ26 (parent)
chain: MISHIVAMDENRVIGKDNRLPWHLPADLAYFKRVTMGHAIVMGRKTFEAIGRPLPGRDNVVVTRNRSFRPEGCLVLHSLEEVKQWIASRADEVFIIGGAELFRATMPIVDRLYVTKIFASFPGDTFYPPISDDEWEIVSYTPGGKDEKNPYEHAFIIYERKKAK

# Variants of: B1
# experimental conditions: Geobacillus kaustophilus (strain HTA426); pH 7; Thermal; CD; Potassium Phosphate Buffer 10 mM; structure 1ZDR; whole UniProt chain shown
quantity kind: change of melting temperature, mutant - wild type (higher = more stable) (°C)

mutation name	number
P122E P129D	-1.2
L20M A104Q	-5.1
P122E	-0.9
L20M	-4.8
P129D	-1.6
